Target: HDAC9 (Homo sapiens, UniProt Q9UKV0)
Sequence (Q9UKV0 whole entry, canonical isoform): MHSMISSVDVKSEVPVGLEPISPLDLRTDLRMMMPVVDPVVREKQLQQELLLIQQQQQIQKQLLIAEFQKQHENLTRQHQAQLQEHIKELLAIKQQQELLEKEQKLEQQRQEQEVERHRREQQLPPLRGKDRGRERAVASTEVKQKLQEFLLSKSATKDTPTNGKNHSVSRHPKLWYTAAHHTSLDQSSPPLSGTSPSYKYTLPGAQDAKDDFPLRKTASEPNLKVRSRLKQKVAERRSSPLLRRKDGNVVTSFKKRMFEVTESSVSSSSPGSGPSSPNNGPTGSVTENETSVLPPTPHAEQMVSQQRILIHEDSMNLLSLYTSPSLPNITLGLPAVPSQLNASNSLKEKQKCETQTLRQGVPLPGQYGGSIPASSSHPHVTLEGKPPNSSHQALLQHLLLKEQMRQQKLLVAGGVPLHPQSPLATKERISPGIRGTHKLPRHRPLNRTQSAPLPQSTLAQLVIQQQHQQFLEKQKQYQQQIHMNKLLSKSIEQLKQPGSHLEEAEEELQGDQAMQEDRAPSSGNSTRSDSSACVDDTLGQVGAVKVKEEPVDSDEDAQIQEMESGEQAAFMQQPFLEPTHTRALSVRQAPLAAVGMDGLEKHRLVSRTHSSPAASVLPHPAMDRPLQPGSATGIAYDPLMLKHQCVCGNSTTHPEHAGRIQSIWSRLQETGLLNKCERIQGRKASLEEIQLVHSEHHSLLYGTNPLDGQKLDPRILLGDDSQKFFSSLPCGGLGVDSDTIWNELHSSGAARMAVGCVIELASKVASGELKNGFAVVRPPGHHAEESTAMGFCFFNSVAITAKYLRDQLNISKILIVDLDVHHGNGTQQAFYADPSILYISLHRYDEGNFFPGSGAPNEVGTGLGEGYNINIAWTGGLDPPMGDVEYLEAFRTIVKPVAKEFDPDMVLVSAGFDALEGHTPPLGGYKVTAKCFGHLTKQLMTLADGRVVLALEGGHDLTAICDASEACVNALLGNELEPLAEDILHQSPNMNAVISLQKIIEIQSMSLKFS
Test: Fluorometric HDAC activity assay, recombinant isoform
pIC50: −log10 of the molar value.
reportedProperty: pIC50

Requested field: pIC50. Item: COc1ccc(S(=O)(=O)N2CCc3cc(C=CC(=O)NO)cc(N)c32)cc1 [MPT0G030]
< 5.00

====

Molecular target: HDAC2 (Homo sapiens)
Sequence (Q92769 whole entry, canonical isoform): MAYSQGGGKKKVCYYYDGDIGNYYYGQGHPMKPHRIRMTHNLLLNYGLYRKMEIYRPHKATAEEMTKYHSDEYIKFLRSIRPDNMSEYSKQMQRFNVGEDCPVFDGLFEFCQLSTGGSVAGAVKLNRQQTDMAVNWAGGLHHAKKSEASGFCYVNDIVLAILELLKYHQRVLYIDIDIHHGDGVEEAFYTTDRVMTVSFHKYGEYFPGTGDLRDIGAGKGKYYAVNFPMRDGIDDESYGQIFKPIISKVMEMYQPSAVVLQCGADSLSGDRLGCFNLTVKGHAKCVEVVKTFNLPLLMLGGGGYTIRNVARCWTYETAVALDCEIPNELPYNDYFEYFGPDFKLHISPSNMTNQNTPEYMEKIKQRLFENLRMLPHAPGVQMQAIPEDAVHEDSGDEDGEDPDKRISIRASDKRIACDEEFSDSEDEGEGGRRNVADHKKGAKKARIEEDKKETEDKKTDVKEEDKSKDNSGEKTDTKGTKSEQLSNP
Experiment: Fluorometric HDAC activity assay, recombinant isoform
reportedProperty: IC50 (nM)
Supply the numeric figure in nM, leaving out any unit text.

GET /values?readout=IC50&system=HDAC2 (Homo sapiens)&item= COc1ccc(S(=O)(=O)N2CCc3cc(C=CC(=O)NO)cc(N)c32)cc1 [MPT0G030]
242
